system: HEK293T; assay: median enrichment of reporter reads in eGFP-reduced (low/intermediate) vs eGFP-high sorted cells (eGFP-extension fusion abundance) (ratio); higher = stronger loss of eGFP-fusion protein abundance (more destabilising extension)
Quick reference: median enrichment of the listed items.
Please reply with the number alone, leaving off any unit.

>>> endpoint_value("WGSCSGGRV [ZNF330]")
0.598

Consider the additional substance presented here.
The reported median enrichment of the substance SRHIQVSFHHFIYKGDQCHRRVPEEMRSQGLS [MPV17L] was 4.12

====

system: HEK293T; assay: median enrichment of reporter reads in eGFP-reduced (low/intermediate) vs eGFP-high sorted cells (eGFP-extension fusion abundance) (ratio); higher = stronger loss of eGFP-fusion protein abundance (more destabilising extension)
READOUT_LABEL: median enrichment
Please reply with the number alone, leaving off any unit.

// below: answered substances
>>> endpoint_value("WGLRPHAPSHAVHPFSQVPNGPGSQDPGPSQNLCPPCP [SARDH]")
9.03
>>> endpoint_value("QRRQMQTKAT [TWSG1]")
0.373

The reported median enrichment of the substance QAVFNLLLNWVFLALILIINHNL [FAM47A] was 5.56

The reported median enrichment of the substance RSKDNGVFFL [USP44] was 1.94

====

tested on: HEK293T; assay: median enrichment of reporter reads in eGFP-reduced (low/intermediate) vs eGFP-high sorted cells (eGFP-extension fusion abundance) (ratio); higher = stronger loss of eGFP-fusion protein abundance (more destabilising extension)
Quick reference: median enrichment of the listed items.
Please reply with the number alone, leaving off any unit.

// below: answered substances
>>> endpoint_value("GWLPRPGRLLDILFWLNIVLWMVPQSGARILPRRKATNGSGNYIKPETLQQGENCAPGCLAQASLEPSKHFCPS [MAB21L3]")
7.37
>>> endpoint_value("YALGKKDCNQRKSIGVEEIKLTLFWLFF [GLI3]")
23.4
>>> endpoint_value("MMMMMMM [Met07]")
6.53
>>> endpoint_value("CEGYYPFYYGTMPCVKNNHPLAYSH [DPY19L2]")
8.92
>>> endpoint_value("WSQFPVTRTILATLFESIQVVWPMILLLTYLSTSSGPCPFGKLSFFLLHWGTGC [CLEC5A]")
9.24
>>> endpoint_value("YRTGIHEQKAESQTCLS [CD5]")
0.587

The reported median enrichment of the substance YQIYRVEGLIGEGRSSGSTQELDWKRSL [SON] was 9.11

The reported median enrichment of the substance MMMMMMMM [Met08] was 8.55

The reported median enrichment of the substance RAMPSLCAVKLSMHYILLAPLQVNAKSQLG [CDC14A] was 7.49

The reported median enrichment of the substance KRRIYVLFKQEKVTLPMLSPLHNI [CDH10] was 4.44

The reported median enrichment of the substance WRLIIYQEC [PKIB] was 7.89

The reported median enrichment of the substance QFPTSELGNCTHSNPACSAS [MAS1L] was 0.296

====

tested on: HEK293T; experiment: median enrichment of reporter reads in eGFP-reduced (low/intermediate) vs eGFP-high sorted cells (eGFP-extension fusion abundance) (ratio); higher = stronger loss of eGFP-fusion protein abundance (more destabilising extension);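 note: lentiviral eGFP-IRES-mCherry reporter pool sorted by FACS 96 h post-transduction, gated on mCherry-high cells, Illumina read counts normalized per million, median across four biological replicates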
Class 1: median enrichment at least 6. Class 0: median enrichment below 6.

Problem: State whether the measured median enrichment reaches 6, counting equality as reaching it, for SWPPPFPPPAPSPSPTRQLIPGLLSDPFSRGTSGQCPTTHTHHHLTGSSLISDNPHPHCFWGSLSHLSHPVSCLCLSWCLSGL [CCDC97]
Solution: 0

Problem: State whether the measured median enrichment reaches 6, counting equality as reaching it, for LEPWGWGRGCQLHSGTLGRWASERLLTGSGASRCQAASGPLGCPGQACEEGLRWGRQGAPGSRDHR [RPUSD1]
Solution: 0

Problem: State whether the measured median enrichment reaches 6, counting equality as reaching it, for RGPPGLWGERM [CHRNB4]
Solution: 0

Problem: State whether the measured median enrichment reaches 6, counting equality as reaching it, for YAKSRCTQHVLGMQPQEVPDLKQPDSYLA [GREM1]
Solution: 1

Problem: State whether the measured median enrichment reaches 6, counting equality as reaching it, for SWTGLFLTSDLSQCLFCPGSDFPVVLPPFRIKGLIVYPEFTSFGVYI [COBL]
Solution: 1
